Target: human CaSR (Homo sapiens, UniProt P41180)
Construct: expressed in transfected cells; host or cells: 293E cells (HEK293 cells expressing EBNA1, ATCC No. CRL-10852), transient transfection
Sequence (P41180 20-1078): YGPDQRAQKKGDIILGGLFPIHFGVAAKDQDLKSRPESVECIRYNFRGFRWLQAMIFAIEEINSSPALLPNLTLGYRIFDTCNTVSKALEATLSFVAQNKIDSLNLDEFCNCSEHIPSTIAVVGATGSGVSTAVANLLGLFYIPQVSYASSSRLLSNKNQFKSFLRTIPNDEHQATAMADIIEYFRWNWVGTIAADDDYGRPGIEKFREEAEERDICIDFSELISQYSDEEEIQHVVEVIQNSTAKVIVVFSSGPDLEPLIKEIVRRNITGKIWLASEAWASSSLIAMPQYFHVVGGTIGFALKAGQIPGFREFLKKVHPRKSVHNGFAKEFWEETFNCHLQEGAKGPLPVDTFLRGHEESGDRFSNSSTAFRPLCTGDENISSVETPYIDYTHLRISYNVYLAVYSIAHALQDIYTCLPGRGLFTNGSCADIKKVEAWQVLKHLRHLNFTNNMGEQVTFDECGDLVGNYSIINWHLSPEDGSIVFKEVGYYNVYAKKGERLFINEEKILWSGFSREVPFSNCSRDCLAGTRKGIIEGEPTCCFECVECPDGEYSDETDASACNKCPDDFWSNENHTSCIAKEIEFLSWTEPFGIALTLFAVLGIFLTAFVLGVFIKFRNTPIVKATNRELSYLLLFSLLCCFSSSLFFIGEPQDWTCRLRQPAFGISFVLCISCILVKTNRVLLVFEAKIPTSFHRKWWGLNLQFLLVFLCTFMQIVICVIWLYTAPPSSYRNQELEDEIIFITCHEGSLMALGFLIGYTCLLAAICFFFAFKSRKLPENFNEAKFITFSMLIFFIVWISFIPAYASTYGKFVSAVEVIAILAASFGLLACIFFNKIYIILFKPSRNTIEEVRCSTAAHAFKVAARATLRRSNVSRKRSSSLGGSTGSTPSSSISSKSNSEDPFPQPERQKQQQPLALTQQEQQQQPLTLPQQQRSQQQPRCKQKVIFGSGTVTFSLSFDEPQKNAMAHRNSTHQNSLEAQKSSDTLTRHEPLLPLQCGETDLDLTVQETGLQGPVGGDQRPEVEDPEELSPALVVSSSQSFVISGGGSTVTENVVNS
Test: Evaluation of CaSR agonist activity (Ca2+ fluorescence, FLIPR, 293E cells transfected with hCaSR/pcDNA3.1)
Format: cell-based
Conditions: measured in a manner similar to Example III, Table 6
metric name: EC50 (nM)

# smiles representation, recorded number
rows = [
    ("COC(=O)[C@@H](N)COC(=O)Nc1cc(Cl)c(C)c(S(=O)(=O)O)c1", 110),
]

A. CCOC(=O)[C@@H](N)CCC(=O)Nc1cc(Cl)cc(S(=O)(=O)O)c1O
B. COC(=O)[C@@H](N)CCC(=O)Nc1cccc(S(=O)(=O)O)c1
Prompt: Smaller EC50 value, A vs B ? Kindly state the label of the option you pick.
Completion: A
(A: 4 nM, B: 23 nM)
